Test system: Plasmodium berghei
Test: Luciferase/luciferin-expressing antifolate-resistant parasites were used to infect a culture of HepG2 cells that were pre-incubated with compounds. Infected hepatocytes emit light due to the luciferase reaction. Assay results are presented as the percent inhibition of light emission compared to control. […]
Format: functional
Details: sporozoite, HEPG2TOX_HILL_SLOPE 3.05, HEPG2TOX_R_SQUARED 0.959, PBLUC_HILL_SLOPE 3.8, PBLUC_R_SQUARED 0.551, read-out: LUCIFERASE INFECTION ASSAY - IC50
readout: pIC50
The scale used: pIC50 is minus the common logarithm of the concentration in molar units.

Record COc1cccc(/C=C/c2nnc(O)c(C#N)c2C)c1 . Reported pIC50: 5.42
